- runDescription: Maximum tolerated dose
- conditionContext: mouse, in vivo; normal Balb/c mice
readoutName: MTD
Answer format reminder: number followed by unit.

Specify MTD for `CC(=O)O[C@@]12CO[C@@H]1C[C@H](O)[C@@]1(C)C(=O)[C@H](O)C3=C(C)[C@@H](OC(=O)[C@H](O)[C@@H](NC(=O)OC(C)(C)C)c4ccccc4)C[C@@](O)([C@@H](OC(=O)c4ccccc4)[C@H]21)C3(C)C` and stop. 5 mg/kg
